- assayText: Toxicity against Artemia salina assessed as mortality at 120 ug/ml
- Format: organism-based
- conditionSummary: in vivo, read-out: Activity
valueType: mortality at 120 ug/ml (%)
Give the value in % but do not write % after it.

### Prompt # mortality at 120 ug/ml lookup, item C[C@]1(Cl)C[C@](C)(/C=C/Cl)[C@H](Br)C[C@@H]1Cl
### Response 100

Data credit: ChEMBL document CHEMBL1158933
